Value source: ChEMBL document CHEMBL1201862

Please respond with reported GI50 for every item in the list.
Tested on: OVCAR-3
METHOD_SUMMARY: NCI tumour cell line growth inhibition, 48 h
The source made the active and inactive calls. No stated cut-off is given here; in the data, active = GI50 up to about 1.1 µM and inactive = higher.

According to the records, this molecule CO[C@@]1(c2ccccc2)O[C@H]2OCCC2[C@H]1c1ccc(Cl)cc1 (stereo not given in full) displays GI50 of 16.5 µM (inactive)

According to the records, this molecule CSc1nnc(COc2ccc(Cl)cc2)o1 displays GI50 of > 100 µM (inactive)

According to the records, this molecule Cc1cc(N(CCCCl)CCCCl)ccc1/C=N/c1cccc(Cl)c1 displays GI50 of 14.5 µM (inactive)

According to the records, this molecule C[C@H]1[C@H]2[C@H](C[C@@]3(C)C4=CC[C@H]5C(C)(C)[C@@H](OC6OCC(O)C(O)C6O)CC[C@@]56C[C@@]46CC[C@]23C)O[C@@]2(O)[C@@H]1OC(C)(C)[C@H]2O (stereo not given in full) displays GI50 of 3.01 µM (inactive)

According to the records, this molecule CCCCOC(=O)NC(Nc1ccc(S(=O)(=O)Nc2ncccn2)cc1)(C(F)(F)F)C(F)(F)F displays GI50 of > 100 µM (inactive)

According to the records, this molecule COP(=O)(OC)[C@@](O)(c1ccccc1)[C@@H](O)[C@H](O)c1ccccc1 displays GI50 of > 100 µM (inactive)

According to the records, this molecule CCCCC1=C(C(=O)N2CCOCC2)C2(OCCO2)C1=O displays GI50 of 19.5 µM (inactive)

According to the records, this molecule CCOC(=O)c1c(-c2ccccc2)oc(=O)c(Cc2cccc3cccnc23)c1-c1ccccc1 displays GI50 of > 10 µM (inactive)

According to the records, this molecule C[C@@H]1C[C@H]2[C@@H]3CCC4=CC(=O)C=C[C@]4(C)[C@@]3(Cl)[C@@H](Cl)C[C@]2(C)[C@@]1(O)C(=O)COP(=O)(O)O displays GI50 of > 100 µM (inactive)

According to the records, this molecule COc1ccccc1NC(=O)/C(=C/c1ccccc1)C(C)=O displays GI50 of 38.6 µM (inactive)

According to the records, this molecule CSc1ncnc2c1cnn2Cc1cn(COCCO)nn1 displays GI50 of 18.3 µM (inactive)

According to the records, this molecule CN(C)CCS/C(=N\c1ccccc1)n1cccc1 displays GI50 of > 100 µM (inactive)

According to the records, this molecule CCn1c(=O)c2c3ccc(O)cc3oc2c2ccc(O)cc21 displays GI50 of 42.7 µM (inactive)

According to the records, this molecule Cc1c2ccnc(C(N)=O)c2c(C)c2c1[nH]c1ccccc12 displays GI50 of 9.08 µM (inactive)

According to the records, this molecule N#CCCN(CCC#N)c1ccc(C(/N=N/c2ccccc2)=N\c2ccccc2)cc1 displays GI50 of > 100 µM (inactive)

According to the records, this molecule Cc1cc(-c2nc3ccc(F)cc3s2)ccc1N displays GI50 of > 100 µM (inactive)

According to the records, this molecule N#CC1=C(N)N(c2ccccc2)C(c2ccccc2)C1(C#N)C#N (stereo not given) displays GI50 of 17.8 µM (inactive)

According to the records, this molecule COc1nc(NC2OC(COC(C)=O)C(OC(C)=O)C(OC(C)=O)C2OC(C)=O)c(/N=C/C=N/c2c(NC3OC(COC(C)=O)C(OC(C)=O)C(OC(C)=O)C3OC(C)=O)nc(OC)[nH]c2=O)c(=O)[nH]1 (stereo not given) displays GI50 of > 100 µM (inactive)

According to the records, this molecule C[N+](C)(C)C1CC([N+](C)(C)C)C2c3ccccc3C21 (stereo not given) displays GI50 of > 100 µM (inactive)

According to the records, this molecule O=[N+]([O-])c1ccc(OP(=O)(O)OCC2OC(CP(=O)(O)O)C(O)C2O)cc1 (stereo not given) displays GI50 of > 100 µM (inactive)

According to the records, this molecule O=C1CCCc2c1c1c(n2Cc2ccccc2)-c2ccccc2C1=O displays GI50 of 16 µM (inactive)

According to the records, this molecule Cc1nn(-c2ccccc2)c2nc(N3CCOCC3)nnc12 displays GI50 of 88.7 µM (inactive)

According to the records, this molecule S=C1c2cc(Cl)ccc2N=C(NC2CCCC2)C2CSCN12 (stereo not given) displays GI50 of > 68.7 µM (inactive)

According to the records, this molecule Cc1ccc(-c2cc(-c3ccc(Cl)cc3)nc(/N=C3\C(=O)N(CN(C)C)c4ccccc43)n2)cc1 displays GI50 of > 100 µM (inactive)

According to the records, this molecule C=CCN1C(=O)/C(=C/c2cccs2)N=C1SC/C=C/C displays GI50 of 44.8 µM (inactive)

According to the records, this molecule CC(=O)OCC1=C(C)C(OC(=O)C(OC(C)=O)[C@@H](NC(=O)c2ccccc2)c2ccccc2)CCC1(C)C (stereo not given in full) displays GI50 of > 100 µM (inactive)

According to the records, this molecule CSc1nc(C#N)c(/N=C\N(C)C)n1C displays GI50 of > 100 µM (inactive)

According to the records, this molecule COc1ccc2[nH]c3c(C)c4ncccc4c(C)c3c2c1 displays GI50 of 2.71 µM (inactive)

According to the records, this molecule Cc1nc2sccn2c1C(=O)NN displays GI50 of > 100 µM (inactive)

According to the records, this molecule CSC1=N/C(=C\c2cccs2)C(=O)N1CN1CCOCC1 displays GI50 of > 100 µM (inactive)

According to the records, this molecule CCOC(=O)c1c(NC(=O)c2ccccc2)sc2c1CCC2 displays GI50 of > 100 µM (inactive)

According to the records, this molecule O=C(CCc1ccc(O)cc1)c1c(O)cc(O)cc1OC1OC(CO)C(O)C(O)C1O (stereo not given) displays GI50 of > 100 µM (inactive)

According to the records, this molecule CCOC(=O)/C(=C\NCC(O)c1ccccc1)c1nc2ccccc2[nH]1 (stereo not given) displays GI50 of 34.7 µM (inactive)

According to the records, this molecule O=c1c2c3c(sc2nc(CN2CCNCC2)n1-c1ccccc1)CCCC3 displays GI50 of > 100 µM (inactive)

According to the records, this molecule O=C(N/C(=C\c1ccc2c(c1)OCO2)c1nc2ccccc2[nH]1)c1ccccc1 displays GI50 of 24.7 µM (inactive)

According to the records, this molecule CC1(OCc2ccccc2)C(=O)N2C1NCC2(C)C (stereo not given) displays GI50 of > 100 µM (inactive)

According to the records, this molecule CCCC/N=C(/c1ccccc1)N1CCOCC1 displays GI50 of > 100 µM (inactive)

According to the records, this molecule FC(F)(F)C(C1=NC(C(F)(F)F)(C(F)(F)F)N=C(N2CCOCC2)O1)C(F)(F)F displays GI50 of 25.5 µM (inactive)

According to the records, this molecule CC(=O)NC1C(OCc2ccccc2)OC(CO)C(O)C1OC(C)C(=O)NC(C(=O)NC(CCC(=O)NCCCC(=O)Nc1ccc2c(c1)CN1C(=O)c3ccccc3C1=N2)C(N)=O)C(C)C (stereo not given) displays GI50 of > 100 µM (inactive)

According to the records, this molecule Cc1cc(N(CCC#N)S(=O)(=O)c2ccccc2)ccc1/C=N\c1cccc(C(=O)O)c1 displays GI50 of > 100 µM (inactive)

###

Please respond with reported GI50 for every item in the list.
Test system: TK-10
METHOD_SUMMARY: NCI tumour cell line growth inhibition, 48 h
Calls of active or inactive are those of the source. Rule as the data show it: active = GI50 up to about 1.1 µM and inactive = higher.

Reading of GI50 for C1=CC2(C=CC13O[C@H](C1CCCCC1)[C@@H](C1CCCCC1)O3)O[C@H](C1CCCCC1)[C@@H](C1CCCCC1)O2 with TK-10: > 50 µM (inactive)

Reading of GI50 for CN(/N=C\c1ccnc2ccccc12)c1ccccc1 with TK-10: 35.3 µM (inactive)

Reading of GI50 for C=C1C(OC(=O)/C=C/c2ccccc2)CC(OC(C)=O)C2(C)C1CC1CC(OC(C)=O)C(C)=C(C(OC(C)=O)C2OC(C)=O)C1(C)C (stereo unspecified) with TK-10: > 100 µM (inactive)

Reading of GI50 for Cc1nc2sccn2c1C(=O)NN with TK-10: > 100 µM (inactive)

Reading of GI50 for N#CCC(=O)N/N=C(/C(=O)Nc1ccccc1)C1C(=O)N(c2ccccc2)N=C1N (stereo unspecified) with TK-10: > 100 µM (inactive)

Reading of GI50 for NC(=O)c1ccc(C(=O)Nc2ccc([As](=O)(O)O)cc2)cc1 with TK-10: > 100 µM (inactive)

Reading of GI50 for CN(C)CCNC(=O)Cn1cnc2cccc([N+](=O)[O-])c2c1=O with TK-10: > 100 µM (inactive)

Reading of GI50 for CSc1c(C#N)c(O)n(-c2ccc(Cl)cc2)c(=O)c1C#N with TK-10: > 100 µM (inactive)

Reading of GI50 for NC1=CN(Cc2ccccc2)C2=N/C(=C\c3ccco3)C(=O)N12 with TK-10: > 100 µM (inactive)

Reading of GI50 for C=C(C)CCC1CCCCC(CN(C)C)C1=O (stereo unspecified) with TK-10: > 100 µM (inactive)

Reading of GI50 for C=CCc1cc(OC)c(O)c(C(=O)/C=C/c2ccc(OC)c(OC)c2)c1 with TK-10: 25.1 µM (inactive)
